- tested.target: TRAF6/Uev1A/Ubc13 (Homo sapiens)
- Sequence (Q9Y4K3 whole entry): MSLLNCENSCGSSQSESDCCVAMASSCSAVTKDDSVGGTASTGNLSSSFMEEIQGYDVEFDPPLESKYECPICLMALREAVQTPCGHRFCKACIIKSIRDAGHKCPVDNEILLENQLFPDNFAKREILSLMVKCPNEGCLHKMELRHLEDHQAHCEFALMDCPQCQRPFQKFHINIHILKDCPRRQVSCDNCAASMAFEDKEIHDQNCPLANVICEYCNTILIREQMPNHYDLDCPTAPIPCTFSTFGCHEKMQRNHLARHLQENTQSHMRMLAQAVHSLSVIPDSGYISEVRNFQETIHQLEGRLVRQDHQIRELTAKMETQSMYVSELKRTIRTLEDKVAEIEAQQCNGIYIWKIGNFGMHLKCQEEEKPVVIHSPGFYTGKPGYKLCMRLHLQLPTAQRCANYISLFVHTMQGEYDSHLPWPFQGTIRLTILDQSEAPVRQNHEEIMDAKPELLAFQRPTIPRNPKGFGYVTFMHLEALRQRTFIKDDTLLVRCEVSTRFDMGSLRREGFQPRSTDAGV
- method.notes: TRAF6/Uev1A/Ubc13 plate-based ubiquitin ligase assay
pIC50: −log10 of the molar value.
Readings of pIC50 for the listed compounds

| structure | pIC50 |
| --- | --- |
| O=S(=O)(Nc1c(F)cccc1F)c1c(Cl)cc(Cl)c2nonc12 | 4.70 to 6.00 |
| O=S(=O)(c1cccc2nsnc12)N1CCC2(CC1)OCc1ccccc12 | ≤ 4.70 |
| CCOC(=O)CSc1cc(NCCCOC(C)=O)c([N+](=O)[O-])c2nonc12 | ≤ 4.70 |
| O=[N+]([O-])c1ccc(N2CCN(c3ccc(O)cc3)CC2)c2nonc12 | 4.70 to 6.00 |
| O=[N+]([O-])c1ccc(N2CCN(CCN3CCOCC3)CC2)c2nonc12 | ≤ 4.70 |
| O=S(=O)(Nc1ccc2cn[nH]c2c1)c1c(Cl)ccc2nonc12 | 4.70 to 6.00 |

For O=[N+]([O-])c1c(N2CCCCC2)cc(-c2ccc(C(F)(F)F)cc2)c2nonc12 , what is its reported pIC50? ≤ 4.70

For O=S(=O)(Oc1ccc(N2CCN(S(=O)(=O)c3ccc(Cl)c4nonc34)CC2)cc1)c1ccc(Cl)c2nonc12 , what is its reported pIC50? 4.70 to 6.00

====

- tested.target: APC11/APC2 (Homo sapiens, UniProt Q9NYG5+Q9UJX6)
- Sequence (Q9NYG5 whole entry): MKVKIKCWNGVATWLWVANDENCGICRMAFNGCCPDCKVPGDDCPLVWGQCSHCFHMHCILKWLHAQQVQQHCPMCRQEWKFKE
- Sequence (Q9UJX6 whole entry): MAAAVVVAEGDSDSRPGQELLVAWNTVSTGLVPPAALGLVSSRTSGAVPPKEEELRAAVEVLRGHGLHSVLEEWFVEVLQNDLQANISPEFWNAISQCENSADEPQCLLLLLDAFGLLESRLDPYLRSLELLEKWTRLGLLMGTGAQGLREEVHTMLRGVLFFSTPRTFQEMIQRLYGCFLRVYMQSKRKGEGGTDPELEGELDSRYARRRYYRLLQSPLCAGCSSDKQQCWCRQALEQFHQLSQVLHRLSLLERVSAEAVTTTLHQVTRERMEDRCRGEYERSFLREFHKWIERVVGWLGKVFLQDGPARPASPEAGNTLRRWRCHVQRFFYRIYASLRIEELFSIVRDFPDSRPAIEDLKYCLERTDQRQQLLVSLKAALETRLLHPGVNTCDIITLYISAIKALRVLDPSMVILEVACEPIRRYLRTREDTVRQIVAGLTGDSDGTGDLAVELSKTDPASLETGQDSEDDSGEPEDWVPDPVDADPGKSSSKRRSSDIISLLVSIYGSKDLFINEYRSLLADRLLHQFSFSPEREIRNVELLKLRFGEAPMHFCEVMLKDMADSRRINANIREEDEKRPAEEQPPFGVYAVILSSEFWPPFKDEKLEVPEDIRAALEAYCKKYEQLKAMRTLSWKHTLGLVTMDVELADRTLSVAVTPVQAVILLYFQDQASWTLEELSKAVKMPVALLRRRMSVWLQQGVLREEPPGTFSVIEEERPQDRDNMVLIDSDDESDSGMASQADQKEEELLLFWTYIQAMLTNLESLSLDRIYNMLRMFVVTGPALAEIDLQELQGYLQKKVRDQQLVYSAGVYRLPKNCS
- method.notes: APC-11/APC-2 ligase assay (APC auto ubiquitination)
- assay.setup: APC assay
pIC50: −log10 of the molar value.
Readings of pIC50 for the listed molecules

Example cases with answers are listed next.
| molecule | pIC50 |
| --- | --- |
| Fc1cc2nsnc2cc1-c1ccccc1 [compound 458, 5-fluoro-6-phenyl-2,1,3-benzthiadiazole] | ≤ 4.70 |
| COc1ccc(C)cc1NS(=O)(=O)c1ccc(Cl)c2nonc12 [compound 381] | ≤ 4.70 |

For O=[N+]([O-])c1cccc(-c2ccc([N+](=O)[O-])c3nonc23)c1 [compound 444] , what is its reported pIC50? 4.70 to 6.00

For O=S(=O)(Nc1cccc(F)c1F)c1ccc(Sc2cccc3ccccc23)c2nonc12 [compound 379] , what is its reported pIC50? 4.70 to 6.00

For O=S(=O)(Nc1ccccc1OC(F)(F)F)c1ccc(Cl)c2nonc12 [compound 366] , what is its reported pIC50? ≤ 4.70

====

- Test system: A549 cells
- method.notes: Cell proliferation PAD assay, A549
- Type: cell-based
- assay.setup: 3pt, 48 hours, read-out: A549 3pt
pIC50: −log10 of the molar value.
observable: pIC50

For O=S(=O)(c1ccc(Cl)c2nonc12)N1CCC(Oc2ncccn2)CC1 , what is its reported pIC50? 4.70 to 6.00

====

- tested.target: TRAF6/Uev1A/Ubc13 (Homo sapiens)
- method.notes: TRAF6/Uev1A/Ubc13 plate-based ubiquitin ligase assay
pIC50: −log10 of the molar value.
Readings of pIC50 for the listed compounds

| compound | measurement |
| --- | --- |
| O=[N+]([O-])c1ccc(N2CCC(Sc3ccccn3)CC2)c2nonc12 [compound 288] | ≤ 4.70 |

For O=[N+]([O-])c1ccc(Nc2ccccc2F)c2nonc12 [compound 401] , what is its reported pIC50? ≤ 4.70

====

Readings of pIC50 for the listed compounds
- System: MIA PaCa-2 cells
- method.notes: Cell proliferation PAD assay, MIA PaCa-2
- Format: cell-based
- assay.setup: Homo sapiens, Miapaca2 cells, 9pt, 48 hours
pIC50: −log10 of the molar value.

| structure | pIC50 |
| --- | --- |
| O=S(=O)(Nc1ccc2cn[nH]c2c1)c1c(Cl)ccc2nonc12 | > 6.00 |

Turning to the following compound.
For CC1(C)CCN(S(=O)(=O)c2c(Cl)ccc3nonc23)CC1 , what is its reported pIC50? > 6.00
